# Target desc: NP of A/California/07/2009(H1N1/H1S) (influenza A virus, NYMC X-181 derived …)
# Sequence (P03466 whole entry): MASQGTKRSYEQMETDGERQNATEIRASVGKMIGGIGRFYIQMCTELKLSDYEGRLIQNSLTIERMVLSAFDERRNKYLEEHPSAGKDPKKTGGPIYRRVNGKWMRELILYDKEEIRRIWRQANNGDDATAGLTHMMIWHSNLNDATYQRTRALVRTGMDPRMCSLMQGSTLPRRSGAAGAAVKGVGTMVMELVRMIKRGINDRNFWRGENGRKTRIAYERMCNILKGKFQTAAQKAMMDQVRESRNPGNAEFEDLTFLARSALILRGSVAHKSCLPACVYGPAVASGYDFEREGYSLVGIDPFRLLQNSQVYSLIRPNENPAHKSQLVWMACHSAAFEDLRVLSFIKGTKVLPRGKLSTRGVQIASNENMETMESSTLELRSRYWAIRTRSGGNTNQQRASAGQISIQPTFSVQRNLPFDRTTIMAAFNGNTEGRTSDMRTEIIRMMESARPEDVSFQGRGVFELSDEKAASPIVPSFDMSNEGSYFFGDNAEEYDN
# Assay summary: sandwich ELISA, capture IgG; NP of lysed virus titrated; HRP-NP17 detection

>  <Binder>
NP8 (antibody, V domains shown) VH: EVQLVESGGGLVQPGGSLRLSCAASGFTINSFGIHWVRQAPGKGLEWVAGIGPFGGSTFYADSVKGRFTISADTSKNTAYLQMNSLRAEDTAVYYCARGFYWFDYWGQGTLVTVSS VL: DIQMTQSPSSLSASVGDRVTITCRASQDVDDSVAWYQQKPGKAPKLLIYWTRYLYSGVPSRFSGSGSGTDFTLTISSLQPEDFATYYCQQGYNYPLTFGQGTKVEIKR

>  <EC50 / nM>
0.752

$$$$
>  <Binder>
NP13 (antibody, V domains shown) VH: EVQLVESGGGLVQPGGSLRLSCAASGFTINNYGIHWVRQAPGKGLEWVASIGPYGGSTYYADSVKGRFTISADTSKNTAYLQMNSLRAEDTAVYYCARFGYFNWLDMDYWGQGTLVTVSS VL: DIQMTQSPSSLSASVGDRVTITCRASQDVGYWVAWYQQKPGKAPKLLISSASGLYSGVPSRFSGSGSGTDFTLTISSLQPEDFATYYCQQGWDWPITFGQGTKVEIKR

>  <EC50 / nM>
47.9

$$$$
>  <Binder>
NP3 (antibody, V domains shown) VH: EVQLVESGGGLVQPGGSLRLSCAASGFTISNYGIHWVRQAPGKGLEWVAGIWPFGGFTSYADSVKGRFTISADTSKNTAYLQMNSLRAEDTAVYYCARFHWNDHGYMDYWGQGTLVTVSS VL: DIQMTQSPSSLSASVGDRVTITCRASQDVGWYVAWYQQKPGKAPKLLIYSTTGLYSGVPSRFSGSGSGTDFTLTISSLQPEDFATYYCQQYYNYPITFGQGTKVEIKR

>  <EC50 / nM>
0.834

$$$$

Data credit: patent US20230212554A1
